FYI, the data here is from patent US20060069132A1.

Test system: woolly cupgrass
Experiment: Test C pre-/postemergence herbicide test
Assay type: in vivo, Eriochloa villosa
Conditions: 250 g ai/ha; scale 0 to 100 (0 no effect, 100 complete control); visual, 12 to 14 days; preemergence
quantityName: Plant response rating, Cupgrass, Woolly
Form rule: numeric answer, no unit written next to it.

Guide cases for Plant response rating, Cupgrass, Woolly, answers given:
CCn1nc(C(C)(C)C)cc1C(=O)Nc1cccc(C(C)=NO)c1 :: 50
CCn1nc(C(C)(C)C)cc1C(=O)Nc1ccc(F)c(C(=O)NCCF)c1 :: 70
CCn1nc(C(C)(C)C)cc1C(=O)Nc1cc(C#N)ccc1F :: 0

Shifting focus to the molecule that follows.
**Query** Param readout = Plant response rating, Cupgrass, Woolly; param system = woolly cupgrass; param query = CCc1nn(C(C)(C)C)cc1C(=O)Nc1cccc(C(C)=NO)c1 ; response: value
**Result** 70
